study.system: androgen receptor AR (Homo sapiens, UniProt P10275, T878A)
Construct: degradation effect of compounds on androgen receptor AR in LNCaP cells; endogenous in cells; host or cells: LNCaP
Sequence (P10275 whole entry T878A): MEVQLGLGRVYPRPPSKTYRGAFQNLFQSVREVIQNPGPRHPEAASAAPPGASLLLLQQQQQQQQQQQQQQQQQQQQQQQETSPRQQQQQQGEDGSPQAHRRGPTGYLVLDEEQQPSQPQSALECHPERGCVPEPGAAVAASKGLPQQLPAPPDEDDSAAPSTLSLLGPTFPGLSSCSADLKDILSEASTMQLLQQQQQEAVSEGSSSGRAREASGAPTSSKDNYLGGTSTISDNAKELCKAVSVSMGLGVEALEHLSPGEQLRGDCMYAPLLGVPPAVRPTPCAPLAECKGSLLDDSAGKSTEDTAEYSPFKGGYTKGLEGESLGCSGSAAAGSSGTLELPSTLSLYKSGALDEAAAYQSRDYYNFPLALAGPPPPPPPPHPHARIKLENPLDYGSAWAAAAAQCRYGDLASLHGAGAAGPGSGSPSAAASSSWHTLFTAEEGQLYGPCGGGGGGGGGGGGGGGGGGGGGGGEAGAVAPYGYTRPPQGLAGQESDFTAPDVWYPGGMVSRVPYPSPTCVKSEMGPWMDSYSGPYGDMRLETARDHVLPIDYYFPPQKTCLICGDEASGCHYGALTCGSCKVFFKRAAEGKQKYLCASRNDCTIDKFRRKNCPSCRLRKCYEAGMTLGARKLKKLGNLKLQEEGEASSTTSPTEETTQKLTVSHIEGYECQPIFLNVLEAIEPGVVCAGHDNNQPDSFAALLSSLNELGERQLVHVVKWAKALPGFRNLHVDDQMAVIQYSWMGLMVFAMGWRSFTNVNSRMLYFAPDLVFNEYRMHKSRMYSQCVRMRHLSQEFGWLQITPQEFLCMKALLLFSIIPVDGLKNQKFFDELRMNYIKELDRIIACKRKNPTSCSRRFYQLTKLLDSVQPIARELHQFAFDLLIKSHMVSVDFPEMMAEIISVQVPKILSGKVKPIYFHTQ
protocol.notes: AR degradation in LNCaP cells by ICW method
Assay type: cell-based
reported.conditions: 24 hours
Counter-ions that a name gives are not always drawn.
Quick reference for Dmax among some compounds
Express the result in % but write the number alone.

Query :: Look at this compound and give its reported Dmax. CC1(C)C(=O)N(c2ccc(C#N)c(C(F)(F)F)c2)C(=S)N1c1ccc(OCCN2CCN(CC(=O)Nc3ccc4c(C5CCC(=O)NC5=O)coc4c3)CC2)c(F)c1 (stereo not shown) [WX002]
Result :: 72

Query :: Now the same for N#Cc1ccc(O[C@H]2CC[C@H](NC(=O)c3ccc(N4CCC(CN5CCN(c6ccc7c(ccc8occ(C9CCC(=O)NC9=O)c87)c6)CC5)CC4)nn3)CC2)cc1Cl (stereo partly shown) [Hydrochloride of WX014]
Result :: 76.2

Query :: Record: N#Cc1ccc(O[C@H]2CC[C@H](NC(=O)c3ccc(N4CCC(CN5CCN(c6cccc7c6ccc6occ(C8CCC(=O)NC8=O)c67)CC5)CC4)nn3)CC2)cc1Cl (stereo partly shown) [Hydrochloride of WX015]
Result :: 102

Query :: Ok, now CC1(C)C(=O)N(c2ccc(C#N)c(C(F)(F)F)c2)C(=S)N1c1ccc(OCCN2CCN(CC(=O)Nc3cccc4c3ccc3occ(C5CCC(=O)NC5=O)c34)CC2)c(F)c1 (stereo not shown) [WX009]
Result :: 64.7
